# target of assay: Thyroid hormone receptor beta (Homo sapiens)
# Sequence (P10828 whole entry): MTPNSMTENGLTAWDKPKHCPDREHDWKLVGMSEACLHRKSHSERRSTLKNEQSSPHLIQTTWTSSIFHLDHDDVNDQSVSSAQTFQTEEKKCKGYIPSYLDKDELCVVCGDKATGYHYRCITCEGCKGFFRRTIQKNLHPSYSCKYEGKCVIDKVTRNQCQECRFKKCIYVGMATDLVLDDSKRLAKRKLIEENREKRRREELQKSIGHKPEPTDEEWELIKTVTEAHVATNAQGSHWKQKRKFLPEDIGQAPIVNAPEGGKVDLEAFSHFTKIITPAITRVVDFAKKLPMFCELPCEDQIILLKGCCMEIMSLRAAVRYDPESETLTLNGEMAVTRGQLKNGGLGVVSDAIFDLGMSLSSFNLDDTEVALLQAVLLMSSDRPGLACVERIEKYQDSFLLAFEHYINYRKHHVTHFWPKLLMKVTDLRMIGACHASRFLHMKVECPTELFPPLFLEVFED
metric: Ki (nM)
Field format: number, assumed nM, no unit text.

Lookup: Check Thyroid hormone receptor beta (Homo sapiens) data and give Ki for Cc1cc(OCP2(=O)OCC[C@@H](c3cccc(Cl)c3)O2)cc(C)c1Cc1ccc(O)c(C(C)C)c1 (stereo partly specified) [MB07811] .
Found: 600
